Origin of the recorded values: PubChem BioAssay (NCI)

Tested on: SK-MEL-2 melanoma
Assay: NCI-60 one-dose screen, 48 h
Conditions: 10 µM unless noted
This is part of a sample that, as a whole, favours compounds with a hit. Of some 83,000 tested, about 20% had one in any assay. Calls of active or inactive are those of the source. The calls were made as follows: active = growth percent below 10; inactive = the rest.
Labels: active, inactive

[
  {
    "molecule": "CNc1cc2nc3cc(NC)c(C)cc3cc2cc1C",
    "assignedCategory": "inactive"
  },
  {
    "molecule": "C=C1CC2(OC1=O)C(=O)Nc1ccccc12 (stereo not given)",
    "assignedCategory": "inactive"
  },
  {
    "molecule": "CN(C)C(=O)c1cc2cnc(Nc3ccc(-c4csc5c(=O)cc(N6CCNCC6)oc45)cc3)nc2n1C1CCCC1",
    "assignedCategory": "inactive"
  },
  {
    "molecule": "CC(=O)CC(C)(C)c1ccc(Cl)cc1",
    "assignedCategory": "inactive"
  },
  {
    "molecule": "COc1ccc(-c2nn(-c3ccccc3)cc2/C=C2\\SC(=O)NC2=O)cc1",
    "assignedCategory": "inactive"
  },
  {
    "molecule": "CC#Cc1nc2ccccc2c(=O)[nH]1",
    "assignedCategory": "inactive"
  },
  {
    "molecule": "CC/C=C\\C[C@H](F)C/C=C1/C(=O)C=C[C@@H]1C/C=C\\CCCC(=O)O",
    "assignedCategory": "inactive"
  },
  {
    "molecule": "O=C(O)c1c([N+](=O)[O-])cnc2ccccc12",
    "assignedCategory": "inactive"
  },
  {
    "molecule": "COc1cccc(NC(=O)c2sc3nc4c(cc3c2N)CN(Cc2ccccc2)CC4)c1",
    "assignedCategory": "inactive"
  },
  {
    "molecule": "COc1ccc(-n2cc(-c3ccccc3)c3c(SCC(=O)N/N=C/c4ccc([N+](=O)[O-])cc4)ncnc32)cc1",
    "assignedCategory": "inactive"
  },
  {
    "molecule": "O=C(O)c1ccc2c(c1Sc1ccccc1)C(=O)c1ccccc1C2=O",
    "assignedCategory": "inactive"
  },
  {
    "molecule": "COc1ccc(-c2cc(-c3ccc(N(C)C)cc3)nc(NC(=O)c3ccncc3)n2)cc1",
    "assignedCategory": "inactive"
  },
  {
    "molecule": "COc1cc(NCCCCCN=C(N)NC(N)=NC(C)C)c2ncccc2c1",
    "assignedCategory": "inactive"
  },
  {
    "molecule": "CC(=O)C1=C(O)C=C2Oc3c(C(=O)/C=C/c4ccccc4)c(O)c(C)c(O)c3[C@]2(C)C1=O",
    "assignedCategory": "active"
  },
  {
    "molecule": "C=C1CC[C@@H]2[C@](C)(COC(C)=O)[C@H](OC(C)=O)CC[C@@]2(C)[C@@H]1CC(NCc1ccc(F)cc1)C1=CCOC1=O (stereo not given in full)",
    "assignedCategory": "inactive"
  },
  {
    "molecule": "CC(C)(C)n1cc(-c2ccnc(NCCCNS(=O)(=O)c3cccc4ccccc34)c2)c(-c2cccc(O)c2)n1",
    "assignedCategory": "inactive"
  },
  {
    "molecule": "CCN(CC)CCC(=O)c1ccc(OC)c2ccccc12",
    "assignedCategory": "inactive"
  },
  {
    "molecule": "Nc1cc(O)cc2cccnc12",
    "assignedCategory": "inactive"
  },
  {
    "molecule": "C[C@@]1(N2C(=O)OC[C@@H]2c2ccccc2)C(=O)N([C@H](CC(=O)N2CCC(N3CCCCC3)CC2)C(=O)NCc2cccc(C(F)(F)F)c2)[C@@H]1/C=C/c1ccccc1",
    "assignedCategory": "inactive"
  },
  {
    "molecule": "COCCCNc1nc(NC(=O)c2ccc(F)cc2C)cc(-c2cccnc2)n1",
    "assignedCategory": "inactive"
  }
]

* * *

System: SF-268 CNS
Test: NCI-60 one-dose screen, 48 h (100 = growth as untreated, 0 = no growth, -100 = all killed)
Details: 10 µM unless noted
Protocol: Cells are grown in 96 well plates and exposed to the test compound for 48 hours. Compounds are tested at a single concentration, which is 10^-5 M for most compounds. The reported endpoint is percent growth (GI% or GIPRCNT), where numbers from 0 - 100% represent growth inhibition, and numbers from -100% - 0 represent cell death. For example, a value of 40 represents 60% growth inhibition. A value of 0 means no net growth occurred over the course of the experiment. […]
About 83,000 compounds went through this panel and 20% of them were active in at least one assay; those are over-represented in the sample as a whole.

[
  {
    "compound": "O=C1/C(=C/c2ccc(Cl)cc2Cl)CN(S(=O)(=O)c2ccccc2)C/C1=C\\c1ccc(Cl)cc1Cl",
    "growth, %": 4.96
  },
  {
    "compound": "C=C1CC[C@@H]2[C@](C)(COC(C)=O)[C@H](OC(C)=O)CC[C@@]2(C)[C@@H]1CC(Nc1ccc(S(=O)(=O)Nc2ccc(Cl)nn2)cc1)C1=CCOC1=O (stereo partly specified)",
    "growth, %": 43.3
  },
  {
    "compound": "CCCCNc1ccc2c3c1cccc3c(=O)n1c3ccccc3nc21",
    "growth, %": 101
  },
  {
    "compound": "C/C=C/C(N)=O",
    "growth, %": 104
  },
  {
    "compound": "O=C1CC(c2nc3ccccc3s2)CN1C1CCCCC1 (stereo unspecified)",
    "growth, %": 99.1
  },
  {
    "compound": "C[C@@H]1CC[C@@H]2[C@@H]1[C@H](OC(=O)/C=C/c1ccccc1)[C@]1(C3CCCCC3)C[C@@H](OC(=O)CO)[C@@]2(C)O1",
    "growth, %": 32.1
  },
  {
    "compound": "CCOC(=O)C(C#N)C1CCCCC1 (stereo unspecified)",
    "growth, %": 91
  },
  {
    "compound": "N#CC1=C(N)Oc2c(ccc3ccccc23)C1c1cccs1 (stereo unspecified)",
    "growth, %": 9.29
  },
  {
    "compound": "Clc1ccc(-c2nnc(COc3ccccc3Cl)o2)cc1",
    "growth, %": 75.5
  },
  {
    "compound": "O=C1Nc2ccc(Br)cc2C12CC(c1ccccc1)=NN2 (stereo unspecified)",
    "growth, %": 58.7
  },
  {
    "compound": "O=C(O)c1cccc2c1-c1ccccc1C2=O",
    "growth, %": 105
  }
]

* * *

Tested on: K-562 leukemia
Assay: NCI-60 one-dose screen, 48 h
Settings: 10 µM unless noted
Procedure: Cells are grown in 96 well plates and exposed to the test compound for 48 hours. Compounds are tested at a single concentration, which is 10^-5 M for most compounds. The reported endpoint is percent growth (GI% or GIPRCNT), where numbers from 0 - 100% represent growth inhibition, and numbers from -100% - 0 represent cell death. For example, a value of 40 represents 60% growth inhibition. A value of 0 means no net growth occurred over the course of the experiment. […]
Compounds without any hit were thinned out: in the full panel of roughly 83,000, 20% have a hit. Active and inactive are the calls of the source. Rule for the calls: active = growth percent below 10; inactive = the rest.
Labels: active, inactive

[
  {
    "compound": "S=c1[nH]nc(CSc2ncnc3c2c(-c2ccccc2)cn3-c2ccc(Cl)cc2)o1",
    "assignedCategory": "inactive"
  },
  {
    "compound": "COc1ccc2c(c1)C(=O)/C(=C/c1cccc(OCC(=O)Nc3nc4c(s3)CCCC4)c1)O2",
    "assignedCategory": "active"
  },
  {
    "compound": "C=C1CC[C@@H]2[C@](C)(COC(C)=O)[C@H](OC(C)=O)CC[C@@]2(C)[C@@H]1CC(Nc1ccc(S(=O)(=O)Nc2ccc(Cl)nn2)cc1)C1=CCOC1=O (stereo partly drawn)",
    "assignedCategory": "active"
  },
  {
    "compound": "CC(=O)C1=C(O)C=C2Oc3c(C(=O)/C=C/c4ccccc4)c(O)c(C)c(O)c3[C@]2(C)C1=O",
    "assignedCategory": "inactive"
  },
  {
    "compound": "COc1ccc(-c2cc(NC(=O)Nc3ccc(O)cc3)no2)cc1",
    "assignedCategory": "inactive"
  },
  {
    "compound": "CC(=O)Nc1ccc2c(c1)c(NC(C)=O)nn2C(=O)Nc1ccc(Cc2ccccc2)cc1",
    "assignedCategory": "inactive"
  },
  {
    "compound": "CC(C)C1=C[C@@]23CC[C@@H]4[C@](C)(CCC[C@@]4(C)C(=O)OCC#CCN4CCCC4)[C@H]2C[C@@H]1[C@H]1C(=O)OC(=O)[C@H]13",
    "assignedCategory": "inactive"
  },
  {
    "compound": "CCOC(=S)SCc1ccc(Cl)cc1",
    "assignedCategory": "inactive"
  }
]

* * *

The following compounds are shown together with reported growth values.
Test system: A549/ATCC NSCLC
Assay: NCI-60 one-dose screen, 48 h (100 = growth as untreated, 0 = no growth, -100 = all killed)
Conditions: 10 µM unless noted
Compounds without any hit were thinned out: in the full panel of roughly 83,000, 20% have a hit.

[
  {
    "compound": "CCOC(=O)CC(C)=N",
    "growth (%)": 101
  },
  {
    "compound": "CC/C=C\\C[C@H](O)C/C=C1/C(=O)C=C[C@@H]1C/C=C\\CCCC(=O)OC(C)C",
    "growth (%)": -39.2
  },
  {
    "compound": "CN1CCN(Cc2ccc(NC(=O)c3cncc(C#Cc4c(N)ncc5ccc(C#N)cc45)c3)cc2C(F)(F)F)CC1",
    "growth (%)": -65.6
  },
  {
    "compound": "Oc1ccc(Nc2nccc(-c3ccc4ccccc4c3)n2)cc1",
    "growth (%)": 14.1
  },
  {
    "compound": "C=C1CC2(OC1=O)C(=O)Nc1ccccc12 (stereo not given)",
    "growth (%)": 100
  },
  {
    "compound": "COc1ccc(-c2c3c(nc4n[nH]c(-c5ccc(Cl)cc5)c24)-c2ccccc2C(=O)C3=O)cc1",
    "growth (%)": 35.9
  },
  {
    "compound": "O=S(=O)(Nc1ccc(F)c(Cl)c1)c1ccc(-c2cnc(C3CC3)o2)cc1",
    "growth (%)": 21.4
  },
  {
    "compound": "COc1cc2c(c(OC)c1OC)-c1ccc(N=NC(N)=S)c(=O)cc1[C@@H](NC(C)=O)CC2",
    "growth (%)": 15
  },
  {
    "compound": "Nc1c(C(=O)Nc2ccccc2)sc2nc3c(cc12)CN(CCc1ccccc1)CC3",
    "growth (%)": 107
  },
  {
    "compound": "Nc1c(C(=O)Nc2ccccc2Cl)sc2nc3c(cc12)CCCCCC3",
    "growth (%)": 29
  }
]
